Tested on: RARg homodimer (NR concentration 270 nM)
Assay: PBM binding z-score (relative to random genomic background probes); higher = stronger binding; sequences stand for … in GC…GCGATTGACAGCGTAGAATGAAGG
Entries annotated with measured PBM binding z-score
Form rule: numeric answer, no unit written next to it.

Worked examples, 6 sequences total:
* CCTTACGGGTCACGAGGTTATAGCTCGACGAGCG | 5.15
* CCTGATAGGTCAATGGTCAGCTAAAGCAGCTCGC | 4.89
* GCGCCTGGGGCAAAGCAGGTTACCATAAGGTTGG | 0.493
* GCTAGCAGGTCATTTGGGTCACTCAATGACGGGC | 4.38
* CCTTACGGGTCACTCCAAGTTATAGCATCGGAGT | 4.69
* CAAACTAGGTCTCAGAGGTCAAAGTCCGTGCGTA | 4.6

Would you kindly share the measured PBM binding z-score for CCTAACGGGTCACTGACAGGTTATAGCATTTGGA ?
4.16

May I ask what PBM binding z-score has been recorded for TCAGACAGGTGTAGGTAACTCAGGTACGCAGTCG ?
0.143

So what's the measured PBM binding z-score for this one? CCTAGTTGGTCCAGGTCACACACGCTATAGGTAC
2.73

Can you look up the measured PBM binding z-score of GCAGACAGGTCAAACGCAGGTAACTCAGGGTGGC for me?
4.53
